Quick reference for inhibition among some molecules
- test-system: MAP kinase-interacting serine/threonine-protein kinase 2 (Homo sapiens, UniProt Q9HBH9)
- Sequence (Q9HBH9 whole entry, looked up): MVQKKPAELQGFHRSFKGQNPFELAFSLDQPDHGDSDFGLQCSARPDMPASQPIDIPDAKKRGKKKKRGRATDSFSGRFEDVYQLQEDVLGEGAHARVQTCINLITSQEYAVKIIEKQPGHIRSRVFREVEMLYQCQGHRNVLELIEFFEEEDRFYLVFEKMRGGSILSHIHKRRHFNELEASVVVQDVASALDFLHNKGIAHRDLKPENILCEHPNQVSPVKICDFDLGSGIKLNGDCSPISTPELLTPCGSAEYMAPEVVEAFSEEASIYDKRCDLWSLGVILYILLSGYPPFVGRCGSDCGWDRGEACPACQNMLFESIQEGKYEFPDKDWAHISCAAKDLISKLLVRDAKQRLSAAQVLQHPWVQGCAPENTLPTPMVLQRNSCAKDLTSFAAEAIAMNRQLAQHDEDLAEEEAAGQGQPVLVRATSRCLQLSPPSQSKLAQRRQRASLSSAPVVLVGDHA
- procedure-details: Inhibition of MNK2 (unknown origin) at 10 uM using S3 as substrate measured after 60 mins by HTRF assay relative to control

# molecule-smiles, inhibition
data = [
    ("COc1cc(O)c(C(N)=O)c2oc(C(=O)NCc3cccc(F)c3)c(C)c12", "23%"),
    ("CNC(=O)c1oc2c(C(N)=O)c(O)cc(OC)c2c1C", "73%"),
    ("COc1cc(O)c(C(N)=O)c2oc(C(=O)NC3CCN(Cc4ccc(F)cc4)CC3)c(C)c12", "15%"),
]

Consider now this further molecule.
Item: COc1cc(O)c(C(N)=O)c2oc(C(=O)NC3CCN(Cc4ccc(Cl)cc4)CC3)c(C)c12 | inhibition: 45%

The reported numbers originate from ChEMBL document CHEMBL4229533.
